These entries and their values trace back to the supplement of paper PMC10627819.

# Test system: S. aureus DSM 20231
# assay-comment: Bliss interaction score (quartile over a dose matrix) (fitness difference); higher = more antagonism (negative = synergy);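 also: first quartile when negative (synergy) and third quartile when positive (antagonism)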
assay-metric: Bliss interaction score
Give only the figure.

Q) # query: Bliss interaction score of entry CCCCCCCCCC(=O)N[C@@H](Cc1c[nH]c2ccccc12)C(=O)N[C@H](CC(N)=O)C(=O)N[C@@H](CC(=O)O)C(=O)N[C@@H]1C(=O)NCC(=O)N[C@@H](CCCN)C(=O)N[C@@H](CC(=O)O)C(=O)N[C@H](C)C(=O)N[C@@H](CC(=O)O)C(=O)NCC(=O)N[C@H](CO)C(=O)N[C@@H]([C@H](C)CC(=O)O)C(=O)N[C@@H](CC(=O)c2ccccc2N)C(=O)O[C@@H]1C [Daptomycin] + Oc1cc(Cl)ccc1Oc1ccc(Cl)cc1Cl [Triclosan]
A) 0.0576

* * *

# maps each entry to its Bliss interaction score
# Tested on: S. pneumoniae D39V
# assay-comment: Bliss interaction score (quartile over a dose matrix) (fitness difference); higher = more antagonism (negative = synergy)
Format: numeric value only, no unit, no commentary.

Completed entries (count: 2):
compound	Bliss interaction score
CN(C)C(=O)C(CCN1CCC(O)(c2ccc(Cl)cc2)CC1)(c1ccccc1)c1ccccc1 [Loperamide] + CN1C2=CC=CC=C2N=C3C1=CC=CC3=O [Pyocyanin]	0.0757
CN(C)C(=O)C(CCN1CCC(O)(c2ccc(Cl)cc2)CC1)(c1ccccc1)c1ccccc1 [Loperamide] + CO[C@H]1/C=C/O[C@@]2(C)Oc3c(C)c(O)c4c(O)c(c(/C=N/N5CCN(C)CC5)c(O)c4c3C2=O)NC(=O)/C(C)=C\C=C\[C@H](C)[C@H](O)[C@@H](C)[C@@H](O)[C@@H](C)[C@H](OC(C)=O)[C@@H]1C [Rifampicin]	-0.0733

Q) For the compound shown here, CO/N=C(\C(=O)N[C@@H]1C(=O)N2C(C(=O)[O-])=C(C[N+]3(C)CCCC3)CS[C@H]12)c1csc(N)n1 [Cefepime] + CN[C@@H]1[C@H](O)[C@H](NC)[C@H]2O[C@@]3(O)C(=O)C[C@@H](C)O[C@H]3O[C@@H]2[C@H]1O [Spectinomycin] , give the reported Bliss interaction score.
A) 0.147

Q) # query: Bliss interaction score of entry CCCCCCCCCC(=O)N[C@@H](Cc1c[nH]c2ccccc12)C(=O)N[C@H](CC(N)=O)C(=O)N[C@@H](CC(=O)O)C(=O)N[C@@H]1C(=O)NCC(=O)N[C@@H](CCCN)C(=O)N[C@@H](CC(=O)O)C(=O)N[C@H](C)C(=O)N[C@@H](CC(=O)O)C(=O)NCC(=O)N[C@H](CO)C(=O)N[C@@H]([C@H](C)CC(=O)O)C(=O)N[C@@H](CC(=O)c2ccccc2N)C(=O)O[C@@H]1C [Daptomycin] + CC(=O)NC[C@H]1CN(c2ccc(N3CCOCC3)c(F)c2)C(=O)O1 [Linezolid]
A) -0.141

* * *

# System: S. pneumoniae D39V
# assay-comment: Bliss interaction score (quartile over a dose matrix) (fitness difference); higher = more antagonism (negative = synergy)
assay-metric: Bliss interaction score
No unit in the answer, please; the number alone is enough.

molecule	Bliss interaction score
CO/N=C(\C(=O)N[C@@H]1C(=O)N2C(C(=O)[O-])=C(C[N+]3(C)CCCC3)CS[C@H]12)c1csc(N)n1 [Cefepime] + CN(C)c1cc(NC(=O)CNC(C)(C)C)c(O)c2c1C[C@H]1C[C@H]3[C@H](N(C)C)C(O)=C(C(N)=O)C(=O)[C@@]3(O)C(O)=C1C2=O [Tigecycline]	0.0368
CCN(CC)CCOC(=O)c1ccc(N)cc1 [Procaine] + CN(C)c1cc(NC(=O)CNC(C)(C)C)c(O)c2c1C[C@H]1C[C@H]3[C@H](N(C)C)C(O)=C(C(N)=O)C(=O)[C@@]3(O)C(O)=C1C2=O [Tigecycline]	0.0455
CN(C)C(=O)C(CCN1CCC(O)(c2ccc(Cl)cc2)CC1)(c1ccccc1)c1ccccc1 [Loperamide] + CC1=C\[C@@H](O)CC(=O)Cc2nc(co2)C(=O)N2CCC=C2C(=O)O[C@H](C(C)C)[C@H](C)/C=C/C(=O)NC\C=C\1 [Virginiamycin M1]	0.0883
C[C@H]1COc2c(N3CCN(C)CC3)c(F)cc3c(=O)c(C(=O)O)cn1c23 [Levofloxacin] + C[n+]1ccc(-c2cc[n+](C)cc2)cc1 [Paraquat]	0.0861
CN(C)C(=O)C(CCN1CCC(O)(c2ccc(Cl)cc2)CC1)(c1ccccc1)c1ccccc1 [Loperamide] + Cn1nnc(-c2ccc(-c3ccc(N4C[C@H](CO)OC4=O)cc3F)cn2)n1 [Tedizolid]	0.243

Q) Which Bliss interaction score is listed for Cn1nnc(-c2ccc(-c3ccc(N4C[C@H](CO)OC4=O)cc3F)cn2)n1 [Tedizolid] + CC[C@H]1OC(=O)[C@H](C)C(=O)[C@H](C)[C@@H](O[C@@H]2O[C@H](C)C[C@H](N(C)C)[C@H]2O)[C@](C)(OC)C[C@@H](C)C(=O)[C@H](C)[C@H]2N(CCCCn3cnc(-c4cccnc4)c3)C(=O)O[C@]12C ?
A) -0.0527

* * *

# System: S. aureus DSM 20231
# assay-comment: Bliss interaction score (quartile over a dose matrix) (fitness difference); higher = more antagonism (negative = synergy)
Each entry below carries its reported Bliss interaction score.

Past entries and their recorded results:
compound	Bliss interaction score
CCN(CC)CCOC(=O)c1ccc(N)cc1 [Procaine] + Cn1nnc(-c2ccc(-c3ccc(N4C[C@H](CO)OC4=O)cc3F)cn2)n1 [Tedizolid]	-0.0772
CO/N=C(\C(=O)N[C@@H]1C(=O)N2C(C(=O)[O-])=C(C[N+]3(C)CCCC3)CS[C@H]12)c1csc(N)n1 [Cefepime] + O=C(O[C@@H]1Cc2c(O)cc(O)cc2O[C@@H]1c1cc(O)c(O)c(O)c1)c1cc(O)c(O)c(O)c1 [EGCG]	-0.159
CN(C)C(=O)C(CCN1CCC(O)(c2ccc(Cl)cc2)CC1)(c1ccccc1)c1ccccc1 [Loperamide] + CN(C)c1cc(NC(=O)CNC(C)(C)C)c(O)c2c1C[C@H]1C[C@H]3[C@H](N(C)C)C(O)=C(C(N)=O)C(=O)[C@@]3(O)C(O)=C1C2=O [Tigecycline]	-0.115
CC1(C)S[C@@H]2[C@H](NC(=O)[C@H](N)c3ccc(O)cc3)C(=O)N2[C@H]1C(=O)O [Amoxicillin] + CC/C(=C(\c1ccccc1)c1ccc(OCCN(C)C)cc1)c1ccccc1 [Tamoxifene]	-0.148
CCN(CC)CCOC(=O)c1ccc(N)cc1 [Procaine] + CO[C@H]1/C=C/O[C@@]2(C)Oc3c(C)c(O)c4c(O)c(c(/C=N/N5CCN(C)CC5)c(O)c4c3C2=O)NC(=O)/C(C)=C\C=C\[C@H](C)[C@H](O)[C@@H](C)[C@@H](O)[C@@H](C)[C@H](OC(C)=O)[C@@H]1C [Rifampicin]	-0.054

Q) Need Bliss interaction score of CO/N=C(\C(=O)N[C@@H]1C(=O)N2C(C(=O)[O-])=C(C[N+]3(C)CCCC3)CS[C@H]12)c1csc(N)n1 [Cefepime] + C[C@@H](O)[C@H]1C(=O)N2C(C(=O)O)=C(SCCNC=N)C[C@H]12 [Imipenem] , thanks.
A) -0.0424
